IC50 reference
Target: human DDC (Homo sapiens)
Construct: made in house
Sequence (P20711 1-480): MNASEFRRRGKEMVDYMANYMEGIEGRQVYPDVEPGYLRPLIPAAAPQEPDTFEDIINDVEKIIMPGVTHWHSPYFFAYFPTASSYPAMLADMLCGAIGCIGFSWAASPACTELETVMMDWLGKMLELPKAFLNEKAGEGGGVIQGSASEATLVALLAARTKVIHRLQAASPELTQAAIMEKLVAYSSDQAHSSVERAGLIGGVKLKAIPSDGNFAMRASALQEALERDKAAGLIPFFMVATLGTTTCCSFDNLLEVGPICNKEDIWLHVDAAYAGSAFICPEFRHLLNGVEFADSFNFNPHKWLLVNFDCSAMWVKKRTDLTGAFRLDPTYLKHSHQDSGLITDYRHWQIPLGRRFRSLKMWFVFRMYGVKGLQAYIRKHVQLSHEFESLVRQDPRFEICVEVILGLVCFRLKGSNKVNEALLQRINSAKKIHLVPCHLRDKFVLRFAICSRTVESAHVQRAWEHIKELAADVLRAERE
Experiment: Assay of the inhibitory activity: spectrophotometric measurement of dopamine production by DDC
Type: biochemical
Settings: 50 nM enzyme, 0.1 mM L-Dopa, 10 µM PLP, pH 7.4, 25°C; 9 concentrations in duplicate; read-out: IC50
metric: IC50 (µM)

molecule | subject-of-test | relation-symbol | observed-result
COc1cccc(-c2nnc(S)n2/N=C/c2ccc(O)c(O)c2)c1 [Compound 45] | human DDC (Homo sapiens) | = | 6.2
Oc1ccc(/C=N/n2c(S)nnc2-c2ccccc2)c(O)c1O [Compound 22] | human DDC (Homo sapiens) | = | 6.7
Oc1ccc(/C=N/n2c(S)nnc2-c2ccc(Cl)cc2Cl)c(O)c1 [Compound 35] | human DDC (Homo sapiens) | = | 29
Oc1ccc(/C=N/n2c(S)nnc2-c2ccc(Cl)cc2)cc1O [Compound 21] | human DDC (Homo sapiens) | = | 6.3
Oc1ccc(/C=N/n2c(S)nnc2-c2ccccc2Cl)cc1O [Compound 25] | human DDC (Homo sapiens) | = | 15.2
Oc1ccc(/C=N/n2c(S)nnc2COc2ccccc2)cc1O [Compound 46] | human DDC (Homo sapiens) | = | 3.5
Cc1cccc(-c2nnc(S)n2/N=C/c2ccc(O)c(O)c2)c1 [Compound 43] | human DDC (Homo sapiens) | = | 3.8
O=C(Nc1ccccc1)c1ccccc1NS(=O)(=O)c1ccc2[nH]c(=O)[nH]c2c1 [Compound 17] | human DDC (Homo sapiens) | = | 16.8
O=C1C(=Cc2ccc(O)c(O)c2)C(=O)c2ccccc21 [Compound 10] | human DDC (Homo sapiens) | = | 12.8
COc1ccccc1-c1nnc(S)n1/N=C/c1ccc(O)c(O)c1 [Compound 47] | human DDC (Homo sapiens) | > | 200
Oc1cccc(/C=N/n2c(S)nnc2-c2ccc(Cl)cc2Cl)c1O [Compound 11] | human DDC (Homo sapiens) | = | 27.3
Cc1ccccc1-c1nnc(S)n1/N=C/c1ccc(O)c(O)c1 [Compound 41] | human DDC (Homo sapiens) | = | 30.1
Oc1ccc(/C=N/n2c(S)nnc2-c2ccc(Cl)cc2Cl)cc1O [Compound 30] | human DDC (Homo sapiens) | = | 29.8
Cc1ccc(-c2nnc(S)n2/N=C/c2ccc(O)c(O)c2)cc1 [Compound 42] | human DDC (Homo sapiens) | = | 5.2
O=S(=O)(c1ccc2nnn(O)c2c1)N1CCCCC1 [Compound 2] | human DDC (Homo sapiens) | = | 1500
Oc1ccc(/C=N/n2cnnc2)cc1O [Compound 38] | human DDC (Homo sapiens) | = | 76
Oc1cccc(/C=N/n2c(S)nnc2-c2ccc(Cl)cc2)c1 [Compound 24] | human DDC (Homo sapiens) | = | 77.1
Oc1ccc(/C=N/n2c(S)nnc2-c2ccc(F)cc2)cc1O [Compound 34] | human DDC (Homo sapiens) | = | 11
COc1ccc(-c2nnc(S)n2/N=C/c2ccc(O)c(O)c2)cc1 [Compound 44] | human DDC (Homo sapiens) | = | 1.7
Oc1cccc(/C=N/n2c(S)nnc2-c2ccccc2Cl)c1 [Compound 28] | human DDC (Homo sapiens) | = | 17
